The molecules below have reported IC50 for UniProt:P42336.
Sequence (P42336 whole entry, one chain of several): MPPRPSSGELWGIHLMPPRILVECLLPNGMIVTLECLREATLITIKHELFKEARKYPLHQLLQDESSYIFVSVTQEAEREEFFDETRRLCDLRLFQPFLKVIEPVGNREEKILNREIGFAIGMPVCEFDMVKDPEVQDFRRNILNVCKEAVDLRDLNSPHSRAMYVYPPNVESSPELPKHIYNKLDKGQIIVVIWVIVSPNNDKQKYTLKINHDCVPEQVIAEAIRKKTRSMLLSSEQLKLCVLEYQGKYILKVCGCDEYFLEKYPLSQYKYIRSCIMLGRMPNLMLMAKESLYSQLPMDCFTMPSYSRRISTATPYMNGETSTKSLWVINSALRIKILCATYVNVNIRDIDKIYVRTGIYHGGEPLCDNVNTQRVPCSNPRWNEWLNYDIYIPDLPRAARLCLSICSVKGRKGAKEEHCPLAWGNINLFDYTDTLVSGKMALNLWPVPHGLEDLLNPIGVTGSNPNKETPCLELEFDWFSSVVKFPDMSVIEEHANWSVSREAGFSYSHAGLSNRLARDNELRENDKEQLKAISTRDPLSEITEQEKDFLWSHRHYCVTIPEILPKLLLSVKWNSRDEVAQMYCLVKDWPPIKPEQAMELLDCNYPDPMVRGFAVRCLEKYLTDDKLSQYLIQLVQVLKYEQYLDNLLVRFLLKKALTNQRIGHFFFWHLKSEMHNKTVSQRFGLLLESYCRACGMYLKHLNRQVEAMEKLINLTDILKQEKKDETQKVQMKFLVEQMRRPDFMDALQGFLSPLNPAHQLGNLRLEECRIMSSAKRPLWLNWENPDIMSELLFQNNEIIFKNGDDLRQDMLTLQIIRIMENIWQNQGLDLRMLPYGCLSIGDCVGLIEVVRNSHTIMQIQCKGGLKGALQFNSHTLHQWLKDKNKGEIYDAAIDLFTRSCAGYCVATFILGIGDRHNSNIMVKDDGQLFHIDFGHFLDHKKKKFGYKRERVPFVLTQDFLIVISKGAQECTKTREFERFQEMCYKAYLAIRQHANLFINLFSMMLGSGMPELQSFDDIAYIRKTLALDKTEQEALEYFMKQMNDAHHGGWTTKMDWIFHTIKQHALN

Sample C[C@H](NC(=O)c1c(N)nn2cccnc12)c1cc2cccc(-c3cncs3)c2c(=O)n1-c1ccccc1 [Compound 245] , system: UniProt:P42336. Its IC50 is 1 to 10 µM

---

biological target: RAJI p110 δ (Homo sapiens, UniProt O00329); test: RAJI p110 δ cellular assay (phospho-AKT);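 note: potency based on lowered phosphorylated AKT in RAJI cells, as a readout of PI3K-δ dependent B-cell receptor signaling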
Sequence (O00329 whole entry): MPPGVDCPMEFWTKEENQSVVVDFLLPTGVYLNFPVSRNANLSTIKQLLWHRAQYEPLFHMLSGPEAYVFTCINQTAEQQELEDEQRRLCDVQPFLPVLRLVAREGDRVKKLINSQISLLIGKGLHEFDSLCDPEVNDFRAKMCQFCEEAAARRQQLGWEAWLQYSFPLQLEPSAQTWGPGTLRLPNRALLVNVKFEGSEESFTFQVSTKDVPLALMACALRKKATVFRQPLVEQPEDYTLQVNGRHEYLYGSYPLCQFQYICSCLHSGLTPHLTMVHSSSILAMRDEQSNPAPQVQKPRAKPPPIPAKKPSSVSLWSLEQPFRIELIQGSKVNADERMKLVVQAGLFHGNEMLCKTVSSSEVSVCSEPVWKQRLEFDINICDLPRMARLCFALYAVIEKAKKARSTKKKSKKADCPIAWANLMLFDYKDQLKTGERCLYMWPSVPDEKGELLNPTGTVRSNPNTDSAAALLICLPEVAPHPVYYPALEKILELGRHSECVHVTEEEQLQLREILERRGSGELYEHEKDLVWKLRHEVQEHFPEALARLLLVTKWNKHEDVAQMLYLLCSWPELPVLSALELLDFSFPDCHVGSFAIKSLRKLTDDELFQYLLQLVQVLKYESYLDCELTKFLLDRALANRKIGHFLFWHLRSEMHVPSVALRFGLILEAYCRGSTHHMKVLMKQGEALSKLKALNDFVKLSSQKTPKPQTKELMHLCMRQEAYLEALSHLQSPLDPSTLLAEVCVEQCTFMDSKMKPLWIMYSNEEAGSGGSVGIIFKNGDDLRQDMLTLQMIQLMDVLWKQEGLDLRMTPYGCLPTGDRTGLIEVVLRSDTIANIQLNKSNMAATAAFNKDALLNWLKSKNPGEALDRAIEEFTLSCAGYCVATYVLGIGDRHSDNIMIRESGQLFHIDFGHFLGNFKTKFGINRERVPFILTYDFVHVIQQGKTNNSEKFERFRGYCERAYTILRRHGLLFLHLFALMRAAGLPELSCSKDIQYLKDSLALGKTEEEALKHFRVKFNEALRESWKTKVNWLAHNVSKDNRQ
Sequence (P27986 whole entry partner): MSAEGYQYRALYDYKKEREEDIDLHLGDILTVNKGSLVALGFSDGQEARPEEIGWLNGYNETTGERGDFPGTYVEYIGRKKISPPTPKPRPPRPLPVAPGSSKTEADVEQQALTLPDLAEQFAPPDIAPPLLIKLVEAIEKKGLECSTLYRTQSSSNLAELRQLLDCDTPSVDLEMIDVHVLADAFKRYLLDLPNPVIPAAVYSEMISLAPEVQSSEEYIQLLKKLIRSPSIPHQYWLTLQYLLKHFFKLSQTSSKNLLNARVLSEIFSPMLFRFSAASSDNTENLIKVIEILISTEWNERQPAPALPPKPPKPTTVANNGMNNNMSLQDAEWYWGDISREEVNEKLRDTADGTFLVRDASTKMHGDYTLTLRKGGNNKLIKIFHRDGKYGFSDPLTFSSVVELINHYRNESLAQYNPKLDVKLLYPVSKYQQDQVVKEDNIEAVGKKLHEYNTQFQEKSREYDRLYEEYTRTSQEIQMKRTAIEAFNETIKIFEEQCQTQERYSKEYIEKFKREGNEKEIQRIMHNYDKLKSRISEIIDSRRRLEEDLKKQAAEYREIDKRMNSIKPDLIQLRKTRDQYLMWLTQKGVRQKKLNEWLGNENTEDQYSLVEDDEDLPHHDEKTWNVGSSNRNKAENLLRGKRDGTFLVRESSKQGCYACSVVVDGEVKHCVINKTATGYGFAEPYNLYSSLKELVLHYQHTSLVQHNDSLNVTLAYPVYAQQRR
readout kind: IC50

Take a look at these entries with their results.
compound: C[C@H](NC(=O)c1c(N)nn2cccnc12)c1cc2cccc(C#CCNC(=O)[C@H]3CCC(=O)O3)c2c(=O)n1-c1ccccc1
IC50: < 100 nM
--
compound: C[C@H](NC(=O)c1c(N)nn2cccnc12)c1cc2cccc(C#CCNC(=O)C3CCC(=O)C3)c2c(=O)n1-c1ccccc1 (some centres unmarked)
IC50: < 100 nM
--
compound: C[C@H](NC(=O)c1nccnc1N)c1cc2cccc(Cl)c2c(=O)n1-c1ccccc1
IC50: < 100 nM
--
compound: CC(C)Oc1cc(-c2cccc3cc([C@H](C)NC(=O)c4c(N)nn5cccnc45)n(-c4ccccc4)c(=O)c23)ccn1
IC50: < 100 nM

// IC50 value for C[C@H](NC(=O)c1nc(-c2cccc(NS(C)(=O)=O)c2)cnc1N)c1cc2cccc(Cl)c2c(=O)n1C1CC1 : < 100 nM

// IC50 value for C[C@H](NC(=O)c1c(N)nn2cccnc12)c1cc2cccc(Cl)c2c(=O)n1CC(O)CO (some centres unmarked) : < 100 nM

---

molecular target: Raw264.7 p110 γ (Mus musculus); construct: reduction of phospho-AKT in stimulated RAW 264.7 cells; endogenous in cells; test: Raw264.7 p110 γ cellular assay (phospho-AKT); details: serum-starved RAW264.7 cells stimulated with C5a
readout kind: IC50

// IC50 value for C[C@H](NC(=O)c1c(N)nn2cccnc12)c1cc2cccc(NCC(F)(F)F)c2c(=O)n1-c1ccccc1 : 100 to 1000 nM

// IC50 value for C[C@H](NC(=O)c1nc(-c2ccccc2)cnc1N)c1cc2cccc(Cl)c2c(=O)n1-c1ccccc1 : 1000 to 10000 nM

// IC50 value for Cc1cnc(N)c(C(=O)N[C@@H](C)c2cc3cccc(Cl)c3c(=O)n2-c2ccccc2)n1 : 100 to 1000 nM

// IC50 value for C[C@H](NC(=O)c1nccnc1N)c1cc2cccc(-c3cnn(C)c3)c2c(=O)n1-c1ccccc1 : 100 to 1000 nM

// IC50 value for C[C@H](NC(=O)c1c(N)nn2cccnc12)c1cc2cccc(CO)c2c(=O)n1-c1ccccc1 : < 100 nM

// IC50 value for C[C@H](NC(=O)c1c(N)nn2cccnc12)c1cc2cccc(-c3ccn[nH]3)c2c(=O)n1-c1ccccc1 : < 100 nM

---

biological target: PI3K γ (Homo sapiens, UniProt P48736)
Sequence (P48736 whole entry): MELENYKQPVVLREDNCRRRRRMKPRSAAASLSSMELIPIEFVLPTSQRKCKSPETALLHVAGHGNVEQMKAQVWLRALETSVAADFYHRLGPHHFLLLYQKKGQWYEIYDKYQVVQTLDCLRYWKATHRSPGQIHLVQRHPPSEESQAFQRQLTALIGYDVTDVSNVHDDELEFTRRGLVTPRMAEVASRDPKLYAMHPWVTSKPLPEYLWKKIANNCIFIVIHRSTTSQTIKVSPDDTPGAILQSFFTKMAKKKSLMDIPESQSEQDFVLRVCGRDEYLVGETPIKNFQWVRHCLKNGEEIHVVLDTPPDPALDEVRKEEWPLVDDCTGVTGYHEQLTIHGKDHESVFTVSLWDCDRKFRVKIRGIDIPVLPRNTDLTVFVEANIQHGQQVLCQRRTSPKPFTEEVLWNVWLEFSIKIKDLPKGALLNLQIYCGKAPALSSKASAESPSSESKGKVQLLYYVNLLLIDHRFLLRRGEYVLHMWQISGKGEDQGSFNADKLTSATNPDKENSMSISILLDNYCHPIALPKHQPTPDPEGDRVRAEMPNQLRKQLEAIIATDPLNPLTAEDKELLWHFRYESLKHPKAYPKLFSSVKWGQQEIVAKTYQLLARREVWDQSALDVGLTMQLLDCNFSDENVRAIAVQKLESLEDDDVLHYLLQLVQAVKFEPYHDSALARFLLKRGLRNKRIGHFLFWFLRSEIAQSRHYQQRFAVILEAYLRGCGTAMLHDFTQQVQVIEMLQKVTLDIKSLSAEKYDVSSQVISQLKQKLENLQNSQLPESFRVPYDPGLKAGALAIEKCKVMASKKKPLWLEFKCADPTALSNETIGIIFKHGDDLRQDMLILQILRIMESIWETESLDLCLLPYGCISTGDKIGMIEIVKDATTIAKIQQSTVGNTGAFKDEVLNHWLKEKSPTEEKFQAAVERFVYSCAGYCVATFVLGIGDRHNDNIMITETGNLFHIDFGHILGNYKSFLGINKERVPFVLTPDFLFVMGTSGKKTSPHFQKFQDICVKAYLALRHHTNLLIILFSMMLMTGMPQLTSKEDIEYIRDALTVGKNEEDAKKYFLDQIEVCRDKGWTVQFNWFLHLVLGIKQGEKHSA
pIC50: −log10 of the molar value.
readout kind: pIC50

substance smiles: CNCc1cccc2cc([C@H](C)NC(=O)c3c(N)nn4cccnc34)n(-c3ccccc3)c(=O)c12
readout kind: pIC50
assay result: < 5.00
//
substance smiles: C[C@H](NC(=O)c1c(N)nn2cccnc12)c1cc2cccc(Cl)c2c(=O)n1CCNCCO
readout kind: pIC50
assay result: 5.00 to 6.00

// pIC50 value for COc1cc(-c2cccc3cc([C@H](C)NC(=O)c4c(N)nn5cccnc45)n(-c4ccccc4)c(=O)c23)ccn1 : 6.00 to 7.00

---

Molecular target: PI3K β (Homo sapiens, UniProt P42338)
Construct: purchased Millipore
Sequence (P42338 whole entry): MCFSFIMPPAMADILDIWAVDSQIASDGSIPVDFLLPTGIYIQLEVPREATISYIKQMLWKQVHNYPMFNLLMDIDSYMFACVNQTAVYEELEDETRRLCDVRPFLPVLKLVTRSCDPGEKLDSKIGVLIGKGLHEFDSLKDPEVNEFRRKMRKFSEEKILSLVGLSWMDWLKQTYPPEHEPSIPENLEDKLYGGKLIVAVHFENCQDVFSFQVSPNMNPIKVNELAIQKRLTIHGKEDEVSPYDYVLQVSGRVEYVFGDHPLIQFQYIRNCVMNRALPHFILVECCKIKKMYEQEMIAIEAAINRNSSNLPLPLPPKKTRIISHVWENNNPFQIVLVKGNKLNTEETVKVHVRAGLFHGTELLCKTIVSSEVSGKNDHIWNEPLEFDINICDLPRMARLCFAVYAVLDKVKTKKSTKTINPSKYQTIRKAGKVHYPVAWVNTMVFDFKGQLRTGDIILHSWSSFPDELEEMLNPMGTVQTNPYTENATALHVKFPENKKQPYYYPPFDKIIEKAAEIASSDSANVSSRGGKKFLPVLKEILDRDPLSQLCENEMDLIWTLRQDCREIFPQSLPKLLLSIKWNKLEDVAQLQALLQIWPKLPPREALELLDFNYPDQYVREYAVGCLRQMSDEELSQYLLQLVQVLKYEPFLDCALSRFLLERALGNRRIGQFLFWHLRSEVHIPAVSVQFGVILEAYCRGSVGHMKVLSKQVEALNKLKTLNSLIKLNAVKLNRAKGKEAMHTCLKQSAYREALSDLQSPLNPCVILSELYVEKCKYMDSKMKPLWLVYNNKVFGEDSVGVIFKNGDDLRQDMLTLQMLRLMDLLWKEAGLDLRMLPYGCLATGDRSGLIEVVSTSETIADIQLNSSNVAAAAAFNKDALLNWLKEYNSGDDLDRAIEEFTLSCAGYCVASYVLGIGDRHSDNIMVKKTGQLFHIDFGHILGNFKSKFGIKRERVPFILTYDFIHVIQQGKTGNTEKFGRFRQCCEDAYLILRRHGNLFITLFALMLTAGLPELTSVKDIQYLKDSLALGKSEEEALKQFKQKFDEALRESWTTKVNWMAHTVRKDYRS
Sequence (P27986 whole entry partner): as the sequence (P27986 whole entry partner) above
Experiment: PI3-Kinase Promega ADP-Glo Max assay
Assay type: biochemical
Settings: 40 nM kinase, 3 mM ATP, 500 uM diC8-PtdInsP
Excerpt: Promega ADP-Glo Max assay kit (Cat. No. V7002) was utilized to determine IC50 values for α, β, δ and γ isoforms of human Class I PI3 kinases (Millipore). […] Plates were then read on Envision plate reader in luminescence mode. […] [formula] where S is the sample luminescence, Pos is a positive control without added PI3K, Neg is the negative control without added compound. […]
readout kind: IC50

molecule: Nc1nn2cccnc2c1C(=O)N1CCC[C@H]1c1cc2cccc(Cl)c2c(=O)n1-c1ccccc1
assay result: 1 to 10 µM
//
molecule: C[C@H](NC(=O)c1c(N)nn2cccnc12)c1cc2cccc(O)c2c(=O)n1-c1ccccc1
assay result: 1 to 10 µM
//
molecule: C=CC(=O)NCC#Cc1cccc2cc([C@H](C)NC(=O)c3c(N)nn4cccnc34)n(-c3ccccc3)c(=O)c12
assay result: 1 to 10 µM
//
molecule: C[C@H](NC(=O)c1c(N)nn2cccnc12)c1cc2ccccc2c(=O)n1-c1ccccc1
assay result: 1 to 10 µM
//
molecule: COc1cc(-c2cccc3cc([C@H](C)NC(=O)c4c(N)ncc5cccnc45)n(-c4ccccc4)c(=O)c23)ccn1
assay result: > 10 µM

// IC50 value for C[C@H](NC(=O)c1c(N)nn2cccnc12)c1cc2cccc(-c3cccnc3)c2c(=O)n1-c1ccccc1 : > 10 µM

// IC50 value for C[C@H](NC(=O)c1nc(-c2cccc(S(C)(=O)=O)c2)cnc1N)c1cc2cccc(Cl)c2c(=O)n1-c1ccccc1 : 1 to 10 µM

// IC50 value for C[C@H](NC(=O)c1c(N)nn2cccnc12)c1cc2cccc(C#N)c2c(=O)n1-c1ccccc1 : 1 to 10 µM

// IC50 value for COc1cccc2c(Br)c([C@H](C)NC(=O)c3c(N)nn4cccnc34)n(-c3ccccc3)c(=O)c12 : > 10 µM

// IC50 value for Cc1ccn2ncc(C(=O)N[C@@H](C)c3cc4cccc(Cl)c4c(=O)n3-c3ccccc3)c2n1 : 1 to 10 µM

// IC50 value for C[C@H](NC(=O)c1nc(-c2cccc(NS(C)(=O)=O)c2)cnc1N)c1cc2cccc(Cl)c2c(=O)n1C : < 0.1 µM

// IC50 value for C[C@H](NC(=O)c1c(N)nn2cccnc12)c1cc2cccc(C#CCCNC(=O)[C@H]3CCC(=O)O3)c2c(=O)n1-c1ccccc1 : > 10 µM

// IC50 value for C[C@H](NC(=O)c1c(N)nn2cccnc12)c1cc2cccc(-c3ccncc3)c2c(=O)n1-c1ccccc1 : > 10 µM

// IC50 value for CC(NC(=O)c1c(N)nn2cccnc12)c1cc2cccc(Cl)c2nc1-c1ccccc1 (centres unmarked) : 1 to 10 µM

---

biological target: RAJI p110 δ (Homo sapiens); assay: RAJI p110 δ cellular assay (phospho-AKT)
In this section we review reported IC50 values for a set of molecules.

Take a look at these entries with their results.
substance smiles: C[C@H](NC(=O)c1c(N)nn2cccnc12)c1c(C#N)c2cccc(F)c2c(=O)n1-c1ccccc1
IC50: < 100 nM

substance smiles: C[C@H](NC(=O)c1cnc2cccnn12)c1cc2cccc(Cl)c2c(=O)n1-c1ccccc1
IC50: 100 to 1000 nM

substance smiles: Cc1cc(C)n2nc(N)c(C(=O)N[C@@H](C)c3cc4cccc(Cl)c4c(=O)n3-c3ccccc3)c2n1
IC50: < 100 nM

// IC50 value for C[C@H](NC(=O)c1c(N)nn2cccnc12)c1cc2cccc(-c3cccnc3)c2c(=O)n1-c1ccccc1 : < 100 nM

// IC50 value for C[C@H](NC(=O)c1c(N)nn2cccnc12)c1cc2cccc(C#CCNC(=O)c3ccc(C#N)o3)c2c(=O)n1-c1ccccc1 : < 100 nM

---

target: UniProt:O00329; experiment: RAJI p110 δ cellular assay (phospho-AKT)
readout kind: IC50

Take a look at these entries with their results.
substance smiles: COc1cncc(-c2cccc3cc([C@H](C)NC(=O)c4c(N)nn5cccnc45)n(-c4ccccc4)c(=O)c23)c1
IC50: < 100 nM

substance smiles: C[C@H](NC(=O)c1c(N)nn2cccnc12)c1cc2cccc(-c3cnn(C)c3)c2c(=O)n1-c1ccccc1
IC50: < 100 nM

substance smiles: C[C@H](NC(=O)c1c(N)nn2cccnc12)c1cc2cccc(-c3ccc(=O)n(C)c3)c2c(=O)n1-c1ccccc1
IC50: < 100 nM

substance smiles: C[C@H](NC(=O)c1c(N)nn2cccnc12)c1cc2cccc(NCC(F)(F)F)c2c(=O)n1-c1ccccc1
IC50: 100 to 1000 nM

Proceed to the following item.
// IC50 value for C[C@H](NC(=O)c1cnc2cccnn12)c1cc2cccc(Cl)c2c(=O)n1-c1ccc(F)cc1 : < 100 nM

---

target: Raw264.7 p110 γ (Mus musculus, UniProt Q9JHG7); construct: reduction of phospho-AKT in stimulated RAW 264.7 cells; endogenous in cells; experiment: Raw264.7 p110 γ cellular assay (phospho-AKT); conditions: serum-starved RAW264.7 cells stimulated with C5a
readout kind: IC50

Take a look at these entries with their results.
substance smiles: CC(C)Oc1ccc(-c2cnc(N)c(C(=O)N[C@@H](C)c3cc4cccc(Cl)c4c(=O)n3-c3ccccc3)n2)cc1
IC50: 0.1 to 1 µM

substance smiles: C[C@H](NC(=O)c1c(N)nn2cccnc12)c1c(Br)c2cccc(Cl)c2c(=O)n1-c1ccccc1
IC50: < 0.1 µM

substance smiles: CC(C)Oc1ccc(-c2cnc(N)c(C(=O)N[C@@H](C)c3cc4cccc(Cl)c4c(=O)n3-c3ccccc3)n2)cc1Cl
IC50: 1 to 10 µM

Proceed to the following item.
// IC50 value for C[C@H](NC(=O)c1nc(-c2cccc(O)c2)cnc1N)c1cc2cccc(Cl)c2c(=O)n1-c1ccccc1 : 0.1 to 1 µM
